Tested on: Rattus norvegicus
Method Summary: Inhibition of CCK8s-stimulated plasma amylase release in rat assessed as reduction in plasma amylase at 30 umol/kg, po dosed 60 mins before 10 nmol/kg, sc CCK8s challenge and measured after 6 hrs
Assay type: functional
This section presents compounds with their documented inhibition (INH) values.
Just the number please, in %, no unit attached.

# example entries with known answers
1. O=C(N[C@@H](Cc1ccc(F)c(Br)c1)C(=O)O)c1cc(Cl)c(Cl)cc1NS(=O)(=O)c1cccc2nsnc12: 67
2. O=C(N[C@@H](Cc1ccc(F)c(Br)c1)C(=O)O)c1cc(Cl)c(Cl)cc1NS(=O)(=O)c1cccc2nccnc12: -5
3. O=C(N[C@@H](Cc1ccc(Cl)c(Cl)c1)C(=O)O)c1ccc(I)cc1NS(=O)(=O)c1cccc2nsnc12: 45
4. O=C(N[C@@H](Cc1ccc(Cl)c(Br)c1)C(=O)O)c1ccc(Br)cc1NS(=O)(=O)c1cccc2nccnc12: 65

Query string: Name the recorded inhibition (INH) for O=C(N[C@@H](Cc1ccc(F)c(Br)c1)C(=O)O)c1ccc(Br)cc1NS(=O)(=O)c1cccc2nccnc12 .
Result string: 67

====

Species on record: Homo sapiens
Method Summary: Ratio of pKi for human CCK-1R to pKi for human CCK-2R
Readout Name: Ratio pKi
Give the value as a plain number.

1. O=C(N[C@@H](Cc1ccc(F)c(Br)c1)C(=O)O)c1ccc(Cl)cc1NS(=O)(=O)c1cccc2nccnc12: 1.6
2. O=C(N[C@@H](Cc1ccc(F)c(Br)c1)C(=O)O)c1ccc(I)cc1NS(=O)(=O)c1cccc2nsnc12: 1.5
3. O=C(N[C@@H](Cc1ccc(F)c(Br)c1)C(=O)O)c1cc(Cl)c(Cl)cc1NS(=O)(=O)c1cccc2nccnc12: 1.4
4. O=C(N[C@@H](Cc1ccc(Cl)c(Cl)c1)C(=O)O)c1ccc(I)cc1NS(=O)(=O)c1cccc2nsnc12: 0.9
5. O=C(N[C@@H](Cc1ccc(Cl)c(Br)c1)C(=O)O)c1ccc(Br)cc1NS(=O)(=O)c1cccc2nsnc12: 1
6. O=C(N[C@@H](Cc1ccc(F)c(Br)c1)C(=O)O)c1ccc(Br)cc1NS(=O)(=O)c1cccc2nsnc12: 1.6

Query string: Name the recorded Ratio pKi for O=C(N[C@@H](Cc1ccc(F)c(Br)c1)C(=O)O)c1ccc(Cl)cc1NS(=O)(=O)c1cccc2nsnc12 .
Result string: 1.4

Query string: Name the recorded Ratio pKi for O=C(N[C@@H](Cc1ccc(F)c(Br)c1)C(=O)O)c1ccc(Br)cc1NS(=O)(=O)c1cccc2nccnc12 .
Result string: 1.8

Query string: Name the recorded Ratio pKi for O=C(N[C@@H](Cc1ccc(Cl)c(Br)c1)C(=O)O)c1ccc(Br)cc1NS(=O)(=O)c1cccc2nccnc12 .
Result string: 1

====

Method Summary: Plasma half life in rat at 2 umol/kg, iv
Assay type: ADME, organism-based
Rule: half-life below 2 h gives 1. Equal to or above 2 h gives -1.

1) O=C(N[C@@H](Cc1ccc(F)c(Br)c1)C(=O)O)c1ccc(Cl)cc1NS(=O)(=O)c1cccc2nccnc12: 1
2) O=C(N[C@@H](Cc1ccc(F)c(Br)c1)C(=O)O)c1cc(Cl)c(Cl)cc1NS(=O)(=O)c1cccc2nsnc12: -1
3) O=C(N[C@@H](Cc1ccc(F)c(Br)c1)C(=O)O)c1cc(Cl)c(Cl)cc1NS(=O)(=O)c1cccc2nccnc12: -1

Query string: I wonder whether O=C(N[C@@H](Cc1ccc(F)c(Br)c1)C(=O)O)c1ccc(Cl)cc1NS(=O)(=O)c1cccc2nsnc12 has half-life below 2 h. Can you tell?
Result string: 1

Query string: I wonder whether O=C(N[C@@H](Cc1ccc(F)c(Br)c1)C(=O)O)c1ccc(I)cc1NS(=O)(=O)c1cccc2nsnc12 has half-life below 2 h. Can you tell?
Result string: -1
